- System: test plant species
- assay-procedure: Post-emergent herbicidal activity test (greenhouse, foliar spray, visual growth reduction)
- Format: in vivo
- test-parameters: post-emergence, 336 h, CIRAR: canada thistle (Cirsium arvense), 140 g ai/ha, 14 days after application, read-out: Visual Growth Reduction (%) 14 Days After Application, CIRAR
assay-readout: pest or weed control at 140 g/ha

Use these answered entries as a reference point.
>  <compound>
COC(=O)c1nc(-c2cc3c(cc2Cl)OCO3)c(F)cc1Cl

>  <assay-readout>
pest or weed control at 140 g/ha

>  <experimental-value>
85 to 94%

$$$$
>  <compound>
COC(=O)c1nc(-c2ccc(Cl)c(OC)c2F)ncc1Cl

>  <assay-readout>
pest or weed control at 140 g/ha

>  <experimental-value>
60 to 74%

$$$$
>  <compound>
COC(=O)c1nc(-c2ccc(C(F)(F)F)cc2Cl)ccc1C(F)(F)F

>  <assay-readout>
pest or weed control at 140 g/ha

>  <experimental-value>
0 to 29%

$$$$
>  <compound>
COC(=O)c1nc(-c2c(Cl)cc(C(F)(F)F)cc2[S+](C)[O-])ccc1Cl (stereo not drawn)

>  <assay-readout>
pest or weed control at 140 g/ha

>  <experimental-value>
60 to 74%

$$$$
>  <compound>
COC(=O)c1nc(-c2ccc(SC(F)(F)F)cc2Cl)c(Cl)cc1Cl

>  <assay-readout>
pest or weed control at 140 g/ha

>  <experimental-value>
75 to 84%

$$$$

Task item: Give the measured pest or weed control at 140 g/ha of `COC(=O)c1nc(-c2cc(Cl)c(C#N)cc2Cl)ccc1Cl` .
Reply: 0 to 29%

Task item: Give the measured pest or weed control at 140 g/ha of `O=C(O)c1nc(-c2ccc(C(F)(F)F)cc2Cl)ccc1F` .
Reply: 85 to 94%

Task item: Give the measured pest or weed control at 140 g/ha of `COC(=O)c1nc(-c2ccc(C(F)(F)F)cc2C(N)=O)ccc1Cl` .
Reply: 0 to 29%

Task item: Give the measured pest or weed control at 140 g/ha of `C#Cc1ccc(-c2ccc(C(F)(F)F)cc2Cl)nc1C(=O)OC` .
Reply: 0 to 29%

Task item: Give the measured pest or weed control at 140 g/ha of `COC(=O)c1nc(-c2ccc(I)cc2)c(F)cc1Cl` .
Reply: 45 to 59%

Task item: Give the measured pest or weed control at 140 g/ha of `COC(=O)c1nc(-c2ccc(C(F)(F)F)cc2Cl)cc(Br)c1Cl` .
Reply: 0 to 29%

Task item: Give the measured pest or weed control at 140 g/ha of `COC(=O)c1nc(-c2cc(F)c(C)cc2Cl)ccc1Cl` .
Reply: 0 to 29%

From: patent US20230017045A1
